The reported measurements were obtained from ChEMBL document CHEMBL1909046.

- Experimental Target: D(3) dopamine receptor (Homo sapiens)
- Sequence (P35462 whole entry): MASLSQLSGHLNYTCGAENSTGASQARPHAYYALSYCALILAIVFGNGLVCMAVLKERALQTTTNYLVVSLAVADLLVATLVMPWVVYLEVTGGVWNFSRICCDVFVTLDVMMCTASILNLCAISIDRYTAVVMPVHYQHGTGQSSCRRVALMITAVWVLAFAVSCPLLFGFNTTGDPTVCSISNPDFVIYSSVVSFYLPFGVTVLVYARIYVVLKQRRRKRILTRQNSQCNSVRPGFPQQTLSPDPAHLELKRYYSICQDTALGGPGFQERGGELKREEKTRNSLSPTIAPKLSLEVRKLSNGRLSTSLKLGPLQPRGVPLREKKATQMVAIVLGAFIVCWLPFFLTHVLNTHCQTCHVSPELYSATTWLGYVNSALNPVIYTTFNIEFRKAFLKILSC
- Assay Text: DRUGMATRIX: Dopamine D3 radioligand binding (ligand: [3H] Spiperone)
- Assay type: cell membranes, CHO, Membrane
- Measurement Parameters: cho; read-out: IC50
Readout Label: pIC50
Recall that pIC50 is obtained by taking minus log10 of the concentration measured in molar.

# pIC50 of "AURANOFIN" = 6.18

* * *

- Assay Text: DRUGMATRIX: ATPase, Na+/K+ enzyme inhibition (substrate: ATP)
- Type: tissue-based, Sus scrofa, Heart
- Measurement Parameters: Not Active = under 50% inhibition at 10 µM
Readout Label: Ki

# Structure Notation, Value Reported
data = [
    ("CO[C@@H]1[C@@H](OC)[C@H](C)[C@@](O)(CC(=O)O)O[C@H]1[C@H](C)[C@H]1O[C@@]2(CC[C@@](C)([C@H]3CC[C@@](C)([C@@H]4O[C@@H]([C@H]5O[C@](C)(O)[C@H](C)C[C@@H]5C)C[C@@H]4O[C@@H]4C[C@H](OC)[C@@H](OC)[C@H](C)O4)O3)O2)C[C@H](O)[C@H]1C", "Not Active"),
    ("CN/C(=N\\CCSCc1nc[nH]c1C)NC#N", "Not Active"),
]
